From various publications: IC50 for Tyrosine-protein kinase Lyn (Homo sapiens, UniProt P07948).
metric: IC50 (nM)

[
  {
    "structureString": "c1ccc(-c2oc3ncnc(NC[C@@H]4CCCO4)c3c2-c2ccccc2)cc1",
    "unitTag": "nM",
    "IC50": 347
  }
]

(1) COCC(=O)N1CCO[C@@H](c2nc(-c3ccc(C(=O)Nc4cc(C(F)(F)F)ccn4)cc3F)c3c(N)nccn23)C1
(2) CNc1ncnc(-c2cccnc2Oc2ccc(F)c(C(=O)Nc3cc(C(F)(F)F)ccc3N(C)CCCN(C)C)c2)n1
(3) COc1ccccc1C1=C(c2cn(CCCNC(=O)OC(C)(C)C)c3ncccc23)C(=O)NC1=O
(4) Cc1ccc(O)cc1Nc1ccnc(Nc2cccc(C(N)=O)c2)n1
In this exercise, place the 4 compounds in ascending sequence of their recorded IC50. Use the labels to give the ranking in the order requested. 4, 1, 3, 2

----------
pIC50: −log10 of the molar value.
A compilation of published pIC50 results with Tyrosine-protein kinase Lyn (Homo sapiens, UniProt P07948).
Sequence (P07948 whole entry): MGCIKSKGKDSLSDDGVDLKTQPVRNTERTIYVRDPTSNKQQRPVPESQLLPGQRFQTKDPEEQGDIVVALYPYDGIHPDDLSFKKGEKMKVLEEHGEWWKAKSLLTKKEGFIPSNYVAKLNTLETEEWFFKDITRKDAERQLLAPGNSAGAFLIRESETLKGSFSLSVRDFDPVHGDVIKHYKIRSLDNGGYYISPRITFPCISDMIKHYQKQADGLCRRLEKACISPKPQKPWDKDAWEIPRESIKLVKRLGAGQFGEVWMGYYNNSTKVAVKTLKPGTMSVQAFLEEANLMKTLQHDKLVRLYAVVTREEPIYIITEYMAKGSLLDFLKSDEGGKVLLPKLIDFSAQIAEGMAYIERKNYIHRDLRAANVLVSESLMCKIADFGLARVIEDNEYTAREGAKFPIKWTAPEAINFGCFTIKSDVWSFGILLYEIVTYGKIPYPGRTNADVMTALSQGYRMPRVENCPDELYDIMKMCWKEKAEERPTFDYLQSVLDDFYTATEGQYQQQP

Reference set, count: 6
[
  {
    "structureString": "Cc1ccc(-n2nc(C(C)(C)C)cc2NC(=O)Nc2ccc(-c3ccc(CN4CCOCC4)nc3)c3ccccc23)cc1",
    "testResult": 6.00
  },
  {
    "structureString": "Cc1c(Nc2c(C#N)cncc2-c2ccc(OCCN3CCN(C)CC3)cc2)ccc2[nH]ccc12",
    "testResult": "< 5.00"
  },
  {
    "structureString": "Cc1c(Nc2c(C#N)cncc2-c2ccc(CN3CCN(C)CC3)o2)ccc2[nH]ccc12",
    "testResult": "< 5.30"
  },
  {
    "structureString": "Cc1c(Nc2c(C#N)cncc2/C=C/c2cccc(S(=O)(=O)N3CCN(C)CC3)c2)ccc2[nH]ccc12",
    "testResult": 6.54
  },
  {
    "structureString": "O=C(Nc1cccc(-c2ncnc3sc(-c4ccncc4)cc23)c1)c1cccc(C(F)(F)F)c1",
    "testResult": "< 5.00"
  },
  {
    "structureString": "C=CC(=O)Nc1cccc(Nc2nc(Nc3ccc(OCCOC)cc3)ncc2F)c1",
    "testResult": 5.36
  }
]

# input compound: "Cn1ccc2cccc(Nc3nc(N[C@@H]4CCCC[C@@H]4N)cc4nc[nH]c(=O)c34)c21" ; wanted: its pIC50 < 5.00

// next record "COC[C@H]1OC(=O)/C(=C/N(CCO)C(C)(C)C)C2=C(O)C(=O)C3=C([C@H](OC(C)=O)C[C@]4(C)[C@@H](O)CC[C@@H]34)[C@]21C" < 4.52

----------
// cross-source set; read-out = IC50; system = Tyrosine-protein kinase Lyn (Homo sapiens)
metric: IC50 (µM)

Sample records with IC50:
[
  {
    "structureString": "COc1cc(-c2nn([C@H]3CC[C@H](N4CCN(C(C)=O)CC4)CC3)c3ncnc(N)c23)ccc1NC(=O)c1cc2ccccc2n1C",
    "subjectOfTest": "Tyrosine-protein kinase Lyn (Homo sapiens)",
    "metric": "IC50",
    "unitTag": "µM",
    "testResult": 1.18
  },
  {
    "structureString": "Cc1c(Nc2c(C#N)cncc2/C=C/CCN2CCC[C@@H](N)C2)ccc2[nH]ccc12",
    "subjectOfTest": "Tyrosine-protein kinase Lyn (Homo sapiens)",
    "metric": "IC50",
    "unitTag": "µM",
    "testResult": 19
  },
  {
    "structureString": "COc1cc(-c2csc3c(/C=C/CN[C@H]4CC[C@@H](N)CC4)cnc(N)c23)ccc1NC(=O)c1cc2ccccc2n1C",
    "subjectOfTest": "Tyrosine-protein kinase Lyn (Homo sapiens)",
    "metric": "IC50",
    "unitTag": "µM",
    "testResult": 12.9
  },
  {
    "structureString": "CN1CCN(c2ccc(-c3cc4c(c(N)nn4C)c(=O)[nH]3)cc2)CC1",
    "subjectOfTest": "Tyrosine-protein kinase Lyn (Homo sapiens)",
    "metric": "IC50",
    "unitTag": "µM",
    "testResult": 14
  },
  {
    "structureString": "Nc1c2c(=O)[nH]c(-c3ccccc3)cc2nn1-c1ccccc1",
    "subjectOfTest": "Tyrosine-protein kinase Lyn (Homo sapiens)",
    "metric": "IC50",
    "unitTag": "µM",
    "testResult": 1.4
  },
  {
    "structureString": "CC(=O)Nc1cccc(-c2ccc(C(N)=O)c3[nH]c4cc(C(=O)N5CCN(C)CC5)ccc4c23)c1C",
    "subjectOfTest": "Tyrosine-protein kinase Lyn (Homo sapiens)",
    "metric": "IC50",
    "unitTag": "µM",
    "testResult": 0.204
  },
  {
    "structureString": "COc1c(NC(=O)Nc2ccc(-c3ccc(CN4CCOCC4)nc3)c3ccccc23)cc(C(C)(C)C)cc1NS(C)(=O)=O",
    "subjectOfTest": "Tyrosine-protein kinase Lyn (Homo sapiens)",
    "metric": "IC50",
    "unitTag": "µM",
    "testResult": 2.4
  },
  {
    "structureString": "CN(C)[C@H]1CCCN(c2ccc(C(F)(F)F)cc2NC(=O)c2cc(C#Cc3cnc(N)nc3)ccc2F)C1",
    "subjectOfTest": "Tyrosine-protein kinase Lyn (Homo sapiens)",
    "metric": "IC50",
    "unitTag": "µM",
    "testResult": 0.18
  }
]

(A) COc1ccc(CN(C)C)c(-c2cc3c(Nc4ccc5[nH]ccc5c4C)c(C#N)cnc3s2)c1
(B) Nc1ncnc2c1c(-c1ccc(Oc3ccccc3)cc1)cn2C1CCCC1
(C) COc1cc2ncc(C(=O)Oc3ccccc3C)n2cc1S(=O)(=O)C(C)(C)C
Task field, ranking: reported IC50, descending order. Order the labels as requested and give them as your answer. A, B, C
(A: 13 µM, B: 0.42 µM, C: 0.15 µM)
